Origin of values: the nanobody polyreactivity screen of Harvey et al. (2022)

assay.notes: yeast display, Sf9 membrane polyspecificity reagent, FACS + sequencing; frameworks hold sequencing errors
value.kind: polyreactivity (PSR sort gate)

[
  {
    "sequence.string": "QVQLVESGGGLVQAGGSLRLSCAASGSTFDFYAMAWYRQAPGKERELVADITSGGRTSYADSVKGRFTISRDNAKNTVYLQMNSLKPEDTAVYYCAALTRWYAWYDYWGQGTQVTVSS",
    "polyreactivity (PSR sort gate)": "high polyreactivity"
  },
  {
    "sequence.string": "QVQLVESGGGLVQAGGSLRLSCAASGSTFGYNDMGRYRQAPGKERELVADSSYSGDSTYSADSVKGRFTISRDNAQNTVYLQMNSLKPEDTAVYYCKADRFADYDDWGQGTQVTVSS",
    "polyreactivity (PSR sort gate)": "low polyreactivity"
  },
  {
    "sequence.string": "QVQRVESGGGLVQAGGSLRLSCAASGFIFYFYAMRWYRQAPGNERELVAAITWSGTDTYYADSVKGRFTISRDNAKNTVYLQMNSLKPEDTAVYYCARSEHSLVSIKVDYWGQGTQVTVSS",
    "polyreactivity (PSR sort gate)": "low polyreactivity"
  },
  {
    "sequence.string": "QVQLVESGVGIVEAGGSLRLSCAASGRSFTYNAMVWYRQAPGKERELVAAISNTGSTYYADSVKGRFTISRDNAKNSVYLQMNCVKPEDTAVYYCAADRAEFRQDDDPGESNYWGQGTQVTVSS",
    "polyreactivity (PSR sort gate)": "low polyreactivity"
  }
]

Per the record, QVQLVESGGGLVQAGGSLRLSCAASGYTIRKNAMGWYRQAPGKERELVAAMSRSGGSTYYADSVKGRFTISRDNAKNIVYLQMNSLKPEDTAVYYCNTRYPYYWPMYGYWGQGTQVTVSS has polyreactivity (PSR sort gate) of high polyreactivity

polyreactivity (PSR sort gate) measured on QVQLVESGGGLVQAGGSLRLSCAASGYILRSNAMGWYRQAPGKEREFVAAITYSGGSTYYADSVKGRFTISRDNAKNTVYFQRNSLKPEATAVYSCSKTTRYRRGYGYWGQGTEVTVSS = low polyreactivity

For record QVQLVESGGGLVQAGGSLRLSCAASGLTFGYYAMGWYRQAPGKERELVAVISGGGGTHYADSVKGRFTISRDNAKITVYLQMNSLKPEDTAVYYCAARYRAQQIARYYYWGQGTQVTVSS the listed polyreactivity (PSR sort gate) is high polyreactivity

Entry QVQLEESGGGLVQAGGSLRLSCAASGSTLEYNVMGWYRQAPGKERELVAAFSRSGGITYYADSVKGRFTISRDNAKNTVYLQMNRLKPEDTAVYYCNRLYTRVREYESWGQGTQVTVSS ; polyreactivity (PSR sort gate) = high polyreactivity

// field: polyreactivity (PSR sort gate); key: QVQLVESGGGLVQAGGSLRLSCAASGIIFGRNVMGWYRQAPGKERELVAAITRRGVNTYYADSVKGRFTISRDNAKNTVYLQMNSLKPEDTAVYYCAATWWQYDQGLHRYDYWGQGTQVTVSS ; value = high polyreactivity

Field polyreactivity (PSR sort gate) (entry RVQHVESGGGLVQAGGSLRLSCAASGYTFEAYAMGWYRPAPGKERELVAAINYSGGSTYADSVKGRFTISRDNAKNNVYLQMHSLKPEDTAVYYCATRLYGYWTYGFDYWGQGTQVTVSS ) reads low polyreactivity

Reported polyreactivity (PSR sort gate) for QVQLVESGGGLVQAGGSLRLSCAASGRILPYYAMGWYRQAPGKERELVAAISYSGGSTYYADSVKGRFTLSRDNGKNTFYLQMNSLKPEDTAVYYCNARPVKASYVGYNYWGQGTQVTVSS was high polyreactivity
